Target: biotinylated human uPAR (human, UniProt Q03405 23-303, limits assumed, biotinylated (site not stated))
Assay: BLI (Octet) competition on biotinylated human uPAR; competitor (first antibody): M5

>  <BINDER>
M1 (antibody, V domains shown, Mouse hybridoma antibody; also called anti-uPAR antibody M1; parental M1) VH: EVQLQQSGAELVRPGASVKLSCTASGFNIKDEYINWVKQRPEQGLEWIGWIDPENGDTEYASKFQGKATITADTSSNTAYLQLSSLTSEDTAVYYCTGGNYVGWFPYWGQGTLVTVSA VL: QIVLTQSPAIMSASPGEKVTMTCSASSSVSYMHWYQQKSGTSPKRWLYDTSKLASGVPARFSGSGSGTSYSLTISSMEAEDAATYYCQQWSSNPPYTFGGGTKLEIK

>  <response in competition assay>
0.365

$$$$
>  <BINDER>
M43 (antibody, V domains shown, Mouse hybridoma antibody; also called anti-uPAR antibody M43; parental M43) VH: QVQLQQSGAELARPGASVNLSCKASGYTFTSYGISWVKQRTGQGLEWIGEIYPRSGNTYYNEKFKGKATLTADKSSRTAYMELRSLTSEDSAVYFCAGKDYGSTYADYWGQGTTLTVSS VL: QIVLTQSPAIMSASPGEKVTMTCSASSSVSSRYLHWYQQKSGASPKLWIYGTSNLASGVPARFSGSGSGTSYSLTINSVEAEDAATYYCQQYHSDPLTFGAGTKLELK

>  <response in competition assay>
0.0175

$$$$
>  <BINDER>
M5 (antibody, V domains shown, Mouse hybridoma antibody; also called anti-uPAR antibody M5; parental M5) VH: QVQLKESGPGLVAPSQSLSITCTVSGFSLTNYGVHWVRQPPGKDLEWLVVIWSDGGTTYNSALKSRLSISKDNSKSQVFLKMNSLQTDDTAMYYCARGGRSDLFAYWGQGTLVTVSA VL: DVLMTQTPLSLPVSLGDQASISCRSSQSIVHSNGNTYLEWYLQKPGQSPKLLIYKVSNRFSGVPDRFSGSGSGTDFTLKISRVEAEDLGVYYCFQGSHVPYTFGGGTKLEIK

>  <response in competition assay>
-0.0173

$$$$
>  <BINDER>
M8 (antibody, V domains shown, Mouse hybridoma antibody; also called anti-uPAR antibody M8; parental M8) VH: QIQLVQSGPELKKPGETVKISCKASGNTFTDYGMNWVKQSPGKGLKWMGWINTNTGEPTYADDFKGRFAFSLETSASTAYLQINNLKNEDMATYFCAHYSFDYWGQGTTLTVSS VL: DIQMTQSPASLSVSVGQTVTITCRTSENIYSNLAWYQQKPGKSPQLLVYAATNLADGVPSRFSGSGSGTQYSLKINSLQSEDFGSYYCQHFWGTPWTFGGGTKLEIK

>  <response in competition assay>
0.321

$$$$
